Test system: PPARg:RXRa IVT, anti-PPARg (NR concentration 270 nM, RXRa partner concentration 90 nM)
assay_info: PBM binding z-score (relative to random genomic background probes); higher = stronger binding; sequences stand for … in GC…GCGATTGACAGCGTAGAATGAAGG
Please go through the items and note down their PBM binding z-score.
A bare number is all that is needed in reply.

The sequence identified as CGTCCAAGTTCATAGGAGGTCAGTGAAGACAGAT registered its PBM binding z-score at 1.81

The sequence identified as TCATATAGGTAATACGGGTGAAAGTCGGCATCTA registered its PBM binding z-score at 3.5

The sequence identified as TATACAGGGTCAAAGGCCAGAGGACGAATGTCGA registered its PBM binding z-score at 4.98

The sequence identified as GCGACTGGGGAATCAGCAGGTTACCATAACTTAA registered its PBM binding z-score at 0.213

The sequence identified as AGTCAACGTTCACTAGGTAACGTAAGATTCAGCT registered its PBM binding z-score at 2.83

The sequence identified as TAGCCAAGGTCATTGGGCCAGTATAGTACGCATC registered its PBM binding z-score at 4.14

====

Test system: PPARg:RXRa DBDmut IVT, anti-RXR (DBD mutation: RXRa K156A/R161A, NR concentration 270 nM, RXRa partner concentration 90 nM)
assay_info: PBM binding z-score (relative to random genomic background probes); higher = stronger binding; sequences stand for … in GC…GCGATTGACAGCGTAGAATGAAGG
parameter_measured: PBM binding z-score
A bare number is all that is needed in reply.

The sequence identified as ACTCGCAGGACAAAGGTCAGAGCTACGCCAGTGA registered its PBM binding z-score at 0.731

The sequence identified as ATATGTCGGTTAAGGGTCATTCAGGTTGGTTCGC registered its PBM binding z-score at 2.75

The sequence identified as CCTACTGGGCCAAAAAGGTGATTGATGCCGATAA registered its PBM binding z-score at 2.58

The sequence identified as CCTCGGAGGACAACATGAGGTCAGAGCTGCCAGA registered its PBM binding z-score at 0.44

The sequence identified as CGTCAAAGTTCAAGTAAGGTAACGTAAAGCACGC registered its PBM binding z-score at 0.544

The sequence identified as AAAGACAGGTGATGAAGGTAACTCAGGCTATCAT registered its PBM binding z-score at 0.0134

The sequence identified as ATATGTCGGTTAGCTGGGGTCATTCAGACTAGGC registered its PBM binding z-score at 1.3

The sequence identified as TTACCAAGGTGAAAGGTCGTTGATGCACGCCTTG registered its PBM binding z-score at 2.84

The sequence identified as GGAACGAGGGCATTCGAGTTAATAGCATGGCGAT registered its PBM binding z-score at 3.25

The sequence identified as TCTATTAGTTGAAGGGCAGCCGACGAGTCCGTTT registered its PBM binding z-score at 2.37

The sequence identified as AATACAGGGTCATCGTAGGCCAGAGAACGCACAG registered its PBM binding z-score at 3.24

The sequence identified as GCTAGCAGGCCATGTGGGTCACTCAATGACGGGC registered its PBM binding z-score at 2.25
